biological target: TRPC5 (Homo sapiens); construct: expressed in transfected cells; host or cells: HEK 293; assay: TRPC5 automated patch clamp assay (Qpatch), current block after rosiglitazone stimulation; type: cell-based; conditions: Table 3; HEK293 cells overexpressing TRPC5; rosiglitazone stimulation; 100 mV; read-out: TRPC5_QP_ XC50_100
Sequence (Q9UL62 whole entry): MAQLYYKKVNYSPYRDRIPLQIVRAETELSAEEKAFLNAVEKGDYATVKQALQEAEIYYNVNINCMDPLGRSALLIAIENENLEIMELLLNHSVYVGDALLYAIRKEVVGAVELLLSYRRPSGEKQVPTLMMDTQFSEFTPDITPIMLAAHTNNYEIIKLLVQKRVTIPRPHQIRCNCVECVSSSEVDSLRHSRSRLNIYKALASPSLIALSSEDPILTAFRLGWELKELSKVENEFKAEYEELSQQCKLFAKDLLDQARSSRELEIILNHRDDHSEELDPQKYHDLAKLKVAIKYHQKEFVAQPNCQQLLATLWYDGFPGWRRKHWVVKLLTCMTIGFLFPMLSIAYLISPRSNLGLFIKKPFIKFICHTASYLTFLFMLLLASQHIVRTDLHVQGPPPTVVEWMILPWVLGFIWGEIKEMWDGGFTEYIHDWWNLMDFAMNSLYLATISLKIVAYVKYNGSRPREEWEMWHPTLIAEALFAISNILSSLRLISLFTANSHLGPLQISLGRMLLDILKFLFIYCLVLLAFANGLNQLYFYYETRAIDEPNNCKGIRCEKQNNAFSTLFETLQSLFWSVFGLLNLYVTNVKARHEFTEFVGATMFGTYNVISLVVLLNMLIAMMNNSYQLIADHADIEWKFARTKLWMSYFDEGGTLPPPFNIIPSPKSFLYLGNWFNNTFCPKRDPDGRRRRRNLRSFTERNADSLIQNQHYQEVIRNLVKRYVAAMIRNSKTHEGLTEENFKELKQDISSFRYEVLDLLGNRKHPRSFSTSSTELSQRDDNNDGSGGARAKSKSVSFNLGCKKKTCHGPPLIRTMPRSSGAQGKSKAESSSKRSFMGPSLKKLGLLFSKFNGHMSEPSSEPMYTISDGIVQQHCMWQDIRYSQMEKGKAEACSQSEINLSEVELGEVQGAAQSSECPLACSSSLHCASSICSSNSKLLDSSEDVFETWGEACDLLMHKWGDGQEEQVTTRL
outcome.measure: IC50

Input line: Tell me reported IC50 for Cc1ccccc1CN1CCN(c2cn[nH]c(=O)c2Br)CC1C (centres unmarked) [drawing 651] , tested with TRPC5 (Homo sapiens).
Output line: 10 to 500 µM

Further cases:
Input line: Tell me reported IC50 for CC(C)(C)CN1CCN(c2cn[nH]c(=O)c2Br)CC1 , tested with TRPC5 (Homo sapiens).
Output line: 10 to 500 µM

Input line: Tell me reported IC50 for CCS(=O)(=O)c1c(N2CCN(Cc3ccccc3C)C(=O)C2)cn[nH]c1=O , tested with TRPC5 (Homo sapiens).
Output line: 10 to 500 µM

Input line: Tell me reported IC50 for O=c1[nH]ncc(N2CCN(CC(F)(F)F)CC2)c1Br , tested with TRPC5 (Homo sapiens).
Output line: 10 to 500 µM

----------
target: TRPC4 (Homo sapiens); construct: expressed in transfected cells; host or cells: HEK-TREx (HekTrex-293), cell line ICLN-1694, tetracycline-induced; test: TRPC4 FLIPR Assay (HEK-TREx hTRPC4, Englerin A stimulation); format: cell-based; details: Table 8; HEK-TREx hTRPC4; read-out: TRPC4 FLIPR IC50
Sequence (Q9UBN4 1-982 isoform Q9UBN4-5): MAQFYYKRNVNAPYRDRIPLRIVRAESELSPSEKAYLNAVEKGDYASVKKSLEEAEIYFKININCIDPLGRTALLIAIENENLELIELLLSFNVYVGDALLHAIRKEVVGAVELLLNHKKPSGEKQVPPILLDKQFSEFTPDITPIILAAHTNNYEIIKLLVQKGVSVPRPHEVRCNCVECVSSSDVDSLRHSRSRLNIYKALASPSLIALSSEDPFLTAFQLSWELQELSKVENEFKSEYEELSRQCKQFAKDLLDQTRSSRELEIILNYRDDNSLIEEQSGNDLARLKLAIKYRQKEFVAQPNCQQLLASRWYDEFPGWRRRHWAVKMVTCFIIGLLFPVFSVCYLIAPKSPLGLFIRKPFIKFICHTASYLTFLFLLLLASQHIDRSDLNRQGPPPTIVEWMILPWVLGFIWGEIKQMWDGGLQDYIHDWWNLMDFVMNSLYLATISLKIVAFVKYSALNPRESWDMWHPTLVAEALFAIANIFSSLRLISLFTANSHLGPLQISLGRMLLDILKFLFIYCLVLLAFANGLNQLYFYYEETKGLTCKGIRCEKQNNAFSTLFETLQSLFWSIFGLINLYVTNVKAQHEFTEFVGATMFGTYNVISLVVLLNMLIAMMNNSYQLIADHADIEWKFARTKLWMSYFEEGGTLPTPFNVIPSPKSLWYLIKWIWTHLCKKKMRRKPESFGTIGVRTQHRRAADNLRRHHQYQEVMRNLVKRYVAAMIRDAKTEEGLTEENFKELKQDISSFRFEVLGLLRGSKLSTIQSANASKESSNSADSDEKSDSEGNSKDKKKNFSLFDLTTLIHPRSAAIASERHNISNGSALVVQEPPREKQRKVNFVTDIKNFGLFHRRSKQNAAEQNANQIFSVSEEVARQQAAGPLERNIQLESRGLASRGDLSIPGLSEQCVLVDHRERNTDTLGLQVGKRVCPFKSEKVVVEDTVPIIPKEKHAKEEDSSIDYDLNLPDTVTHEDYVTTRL
pIC50: −log10 of the molar value.
outcome.measure: pIC50

Example results:
Input line: Tell me reported pIC50 for O=c1[nH]ncc(N2CCc3c(ncn3Cc3ccccc3OC(F)(F)F)C2)c1Cl , tested with TRPC4 (Homo sapiens).
Output line: 6.00 to 11.00

Input line: Tell me reported pIC50 for O=C1CN(c2cn[nH]c(=O)c2Br)CCN1Cc1cccc2ccccc12 [drawing 1009] , tested with TRPC4 (Homo sapiens).
Output line: 6.00 to 11.00

Input line: Tell me reported pIC50 for CNC(=O)c1nn(Cc2ccc(F)cc2C(F)F)c2c1CN(c1cn[nH]c(=O)c1Cl)CC2 [drawing 985] , tested with TRPC4 (Homo sapiens).
Output line: 6.00 to 11.00

Input line: Tell me reported pIC50 for C[C@H](c1ccccc1C(F)(F)F)n1nc(C(N)=O)c2c1CCN(c1cn[nH]c(=O)c1Cl)C2 [drawing 990] , tested with TRPC4 (Homo sapiens).
Output line: 6.00 to 11.00

Input line: Tell me reported pIC50 for O=C1CN(c2cn[nH]c(=O)c2Cl)CCN1Cc1ccc(F)cc1F [drawing 1014] , tested with TRPC4 (Homo sapiens).
Output line: 5.30 to 6.00

Further cases:
Input line: Tell me reported pIC50 for CCc1ncccc1CN1CCN(c2cn[nH]c(=O)c2C#N)CC1 , tested with TRPC4 (Homo sapiens).
Output line: 5.00 to 5.30

Input line: Tell me reported pIC50 for C[C@@H](c1ccccc1C(F)F)n1nnc2c1CCN(c1cn[nH]c(=O)c1Cl)C2 [drawing 980] , tested with TRPC4 (Homo sapiens).
Output line: 6.00 to 11.00

Input line: Tell me reported pIC50 for CCc1ncccc1CN1CCN(c2cn[nH]c(=O)c2Cl)CC1 , tested with TRPC4 (Homo sapiens).
Output line: 6.00 to 11.00

Input line: Tell me reported pIC50 for C[C@H](c1ccccc1)n1cnc2c1CCN(c1cn[nH]c(=O)c1Cl)C2 [drawing 940] , tested with TRPC4 (Homo sapiens).
Output line: 6.00 to 11.00

Input line: Tell me reported pIC50 for COCc1ccccc1Cn1cnc2c1CCN(c1cn[nH]c(=O)c1Cl)C2 [drawing 965] , tested with TRPC4 (Homo sapiens).
Output line: 6.00 to 11.00

Input line: Tell me reported pIC50 for C[C@@H](c1ccccc1C(F)(F)F)n1nnc2c1CCN(c1cn[nH]c(=O)c1Cl)C2 [drawing 962] , tested with TRPC4 (Homo sapiens).
Output line: 6.00 to 11.00

Input line: Tell me reported pIC50 for C[C@H](c1ccc(F)cc1C(F)(F)F)n1nnc2c1CCN(c1cn[nH]c(=O)c1Cl)[C@H]2C [drawing 976] , tested with TRPC4 (Homo sapiens).
Output line: 6.00 to 11.00

Input line: Tell me reported pIC50 for C[C@@H](c1ccccc1C(F)(F)F)N1CCN(c2cn[nH]c(=O)c2Cl)CC1=O [drawing 987] , tested with TRPC4 (Homo sapiens).
Output line: 6.00 to 11.00

Input line: Tell me reported pIC50 for O=c1[nH]ncc(N2CCc3c(ncn3-c3ccccc3C(F)(F)F)C2)c1Cl [drawing 954] , tested with TRPC4 (Homo sapiens).
Output line: 5.30 to 6.00

Input line: Tell me reported pIC50 for O=c1[nH]ncc(N2CCc3c(c(=O)[nH]n3Cc3ccccc3C(F)(F)F)C2)c1Cl [drawing 972] , tested with TRPC4 (Homo sapiens).
Output line: 6.00 to 11.00

Input line: Tell me reported pIC50 for C[C@@H]1Cc2c(nnn2[C@@H](C)c2ccc(F)cc2C(F)(F)F)CN1c1cn[nH]c(=O)c1Cl [drawing 974] , tested with TRPC4 (Homo sapiens).
Output line: 6.00 to 11.00

Input line: Tell me reported pIC50 for COc1cc(F)ccc1CN1CCN(c2cn[nH]c(=O)c2Cl)CC1=O [drawing 1021] , tested with TRPC4 (Homo sapiens).
Output line: 5.30 to 6.00

Input line: Tell me reported pIC50 for CS(=O)(=O)c1nc2c(n1Cc1ccccc1C(F)(F)F)CCN(c1cn[nH]c(=O)c1Cl)C2 [drawing 1002] , tested with TRPC4 (Homo sapiens).
Output line: 6.00 to 11.00

Input line: Tell me reported pIC50 for C[C@@H]1Cc2c(c(C(N)=O)nn2Cc2ccccc2C(F)(F)F)CN1c1cn[nH]c(=O)c1Cl [drawing 986] , tested with TRPC4 (Homo sapiens).
Output line: 6.00 to 11.00

Input line: Tell me reported pIC50 for Cc1ccccc1[C@H](C)N1CCN(c2cn[nH]c(=O)c2Cl)CC1=O [drawing 1020] , tested with TRPC4 (Homo sapiens).
Output line: 3.30 to 5.00

Input line: Tell me reported pIC50 for CNC(=O)c1nn([C@H](C)c2ccccc2C(F)F)c2c1CN(c1cn[nH]c(=O)c1Cl)CC2 [drawing 982] , tested with TRPC4 (Homo sapiens).
Output line: 6.00 to 11.00

Input line: Tell me reported pIC50 for C[C@@H]1Cc2c(nnn2[C@@H](C)c2ccccc2C(F)(F)F)CN1c1cn[nH]c(=O)c1Cl [drawing 968] , tested with TRPC4 (Homo sapiens).
Output line: 6.00 to 11.00

Input line: Tell me reported pIC50 for C[C@@H](c1ccc(F)cc1C(F)(F)F)n1nnc2c1CCN(c1cn[nH]c(=O)c1Cl)C2 , tested with TRPC4 (Homo sapiens).
Output line: 6.00 to 11.00

Input line: Tell me reported pIC50 for CC(c1ccc(F)cc1C(F)F)n1nc(C(N)=O)c2c1CCN(c1cn[nH]c(=O)c1Cl)C2 (centres unmarked) [drawing 983] , tested with TRPC4 (Homo sapiens).
Output line: 6.00 to 11.00

Input line: Tell me reported pIC50 for O=c1[nH]ncc(N2CCc3c(ncn3Cc3ccc(F)cc3C(F)(F)F)C2)c1Cl [drawing 942] , tested with TRPC4 (Homo sapiens).
Output line: 6.00 to 11.00

Input line: Tell me reported pIC50 for O=c1[nH]ncc(N2CCc3c(ncn3Cc3ccccc3C(F)(F)F)C2)c1Cl [drawing 944] , tested with TRPC4 (Homo sapiens).
Output line: 6.00 to 11.00
